Data provenance is patent US20210269525A1.

Let's look at some binders and their measured upper right quadrant, percent of cells AF647+ / hTcRβ-PerCP+.
Molecular target: T1, human CD3e (T-cell surface glycoprotein CD3 epsilon chain) (human, UniProt P07766 23-207)
T1 construct: Target of the anti-hCD3e antibodies on human PBMC, Jurkat cells and cells expressing human CD3e; on T cells it is part of the CD3/TCR complex; also called hCD3e; CD3e on human PBMC
Assay: flow cytometry, human PBMC, antibody 1 ug/mL, anti-human IgG Fc-Alexa Fluor647 (1:500), anti-hTcRβ-PerCP (1:30)
Express your answer in %, writing the number without its unit.

>>> reported_result("10A4-H1K1-IgG1-LALA (antibody, V domains shown, Humanized; human IgG1 with LALA mutations; also called H1K1 (humanized 10A4)) VH: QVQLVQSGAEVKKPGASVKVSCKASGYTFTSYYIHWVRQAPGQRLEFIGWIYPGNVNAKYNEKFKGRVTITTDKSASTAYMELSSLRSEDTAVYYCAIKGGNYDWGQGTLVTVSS VL: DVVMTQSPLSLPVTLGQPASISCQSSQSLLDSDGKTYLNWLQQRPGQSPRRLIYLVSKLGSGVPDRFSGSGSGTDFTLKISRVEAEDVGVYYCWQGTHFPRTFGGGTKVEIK")
77.6
>>> reported_result("10A4-H2K1-IgG1-LALA (antibody, V domains shown, Humanized; human IgG1 with LALA mutations; also called H2K1 (humanized 10A4)) VH: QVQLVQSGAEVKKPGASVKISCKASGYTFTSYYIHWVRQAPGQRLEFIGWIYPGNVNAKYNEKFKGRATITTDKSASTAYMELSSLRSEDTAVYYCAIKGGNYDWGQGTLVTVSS VL: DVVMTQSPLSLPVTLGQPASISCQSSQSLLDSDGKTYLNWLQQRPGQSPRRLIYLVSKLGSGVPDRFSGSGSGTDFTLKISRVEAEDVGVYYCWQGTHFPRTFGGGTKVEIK")
76.8
>>> reported_result("10A4-H1K2-IgG1-LALA (antibody, V domains shown, Humanized; human IgG1 with LALA mutations; also called H1K2 (humanized 10A4)) VH: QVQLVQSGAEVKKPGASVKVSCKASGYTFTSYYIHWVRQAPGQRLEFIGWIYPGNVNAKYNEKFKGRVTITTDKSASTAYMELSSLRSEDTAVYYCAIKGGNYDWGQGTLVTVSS VL: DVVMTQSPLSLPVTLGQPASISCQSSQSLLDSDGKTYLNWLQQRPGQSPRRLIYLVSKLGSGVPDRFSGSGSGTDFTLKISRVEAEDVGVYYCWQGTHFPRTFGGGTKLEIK")
75.8
>>> reported_result("10A4-H3K1-IgG1-LALA (antibody, V domains shown, Humanized; human IgG1 with LALA mutations; also called H3K1 (humanized 10A4)) VH: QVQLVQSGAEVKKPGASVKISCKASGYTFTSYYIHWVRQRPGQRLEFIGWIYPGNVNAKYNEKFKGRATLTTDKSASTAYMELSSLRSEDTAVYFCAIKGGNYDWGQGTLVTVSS VL: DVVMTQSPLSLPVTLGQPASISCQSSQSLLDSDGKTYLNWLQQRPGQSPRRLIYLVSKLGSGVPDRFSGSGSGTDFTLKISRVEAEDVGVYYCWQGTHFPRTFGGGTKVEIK")
75

Name the reported upper right quadrant, percent of cells AF647+ / hTcRβ-PerCP+ value associated with the binder 10A4-H4K1-IgG1-LALA (antibody, V domains shown, Humanized; human IgG1 with LALA mutations; also called H4K1 (humanized 10A4)) VH: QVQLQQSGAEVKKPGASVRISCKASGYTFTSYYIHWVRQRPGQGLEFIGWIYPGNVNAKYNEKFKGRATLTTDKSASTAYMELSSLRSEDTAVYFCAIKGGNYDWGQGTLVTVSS VL: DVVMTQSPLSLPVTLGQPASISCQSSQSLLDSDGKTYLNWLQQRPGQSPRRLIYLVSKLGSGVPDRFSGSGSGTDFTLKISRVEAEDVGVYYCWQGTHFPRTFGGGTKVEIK 76.8

Name the reported upper right quadrant, percent of cells AF647+ / hTcRβ-PerCP+ value associated with the binder 10A4-H4K2-IgG1-LALA (antibody, V domains shown, Humanized; human IgG1 with LALA mutations; also called H4K2 (humanized 10A4)) VH: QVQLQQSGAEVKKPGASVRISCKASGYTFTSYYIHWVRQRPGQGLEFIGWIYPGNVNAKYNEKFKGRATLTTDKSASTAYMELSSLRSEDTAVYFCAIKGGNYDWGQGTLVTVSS VL: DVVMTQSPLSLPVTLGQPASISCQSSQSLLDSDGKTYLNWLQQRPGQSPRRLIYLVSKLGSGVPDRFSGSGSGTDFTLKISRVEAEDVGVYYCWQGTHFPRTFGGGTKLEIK 74.4

Name the reported upper right quadrant, percent of cells AF647+ / hTcRβ-PerCP+ value associated with the binder 10A4-H3K2-IgG1-LALA (antibody, V domains shown, Humanized; human IgG1 with LALA mutations; also called H3K2 (humanized 10A4)) VH: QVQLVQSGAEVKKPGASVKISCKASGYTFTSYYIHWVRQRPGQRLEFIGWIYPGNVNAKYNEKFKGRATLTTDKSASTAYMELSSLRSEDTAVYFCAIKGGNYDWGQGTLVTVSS VL: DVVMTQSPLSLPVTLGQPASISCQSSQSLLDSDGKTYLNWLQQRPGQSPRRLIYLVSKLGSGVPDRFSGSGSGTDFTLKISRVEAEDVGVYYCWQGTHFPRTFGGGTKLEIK 75.8
